- target system: Cruzipain (Trypanosoma cruzi, UniProt P25779)
- Sequence (P25779 whole entry): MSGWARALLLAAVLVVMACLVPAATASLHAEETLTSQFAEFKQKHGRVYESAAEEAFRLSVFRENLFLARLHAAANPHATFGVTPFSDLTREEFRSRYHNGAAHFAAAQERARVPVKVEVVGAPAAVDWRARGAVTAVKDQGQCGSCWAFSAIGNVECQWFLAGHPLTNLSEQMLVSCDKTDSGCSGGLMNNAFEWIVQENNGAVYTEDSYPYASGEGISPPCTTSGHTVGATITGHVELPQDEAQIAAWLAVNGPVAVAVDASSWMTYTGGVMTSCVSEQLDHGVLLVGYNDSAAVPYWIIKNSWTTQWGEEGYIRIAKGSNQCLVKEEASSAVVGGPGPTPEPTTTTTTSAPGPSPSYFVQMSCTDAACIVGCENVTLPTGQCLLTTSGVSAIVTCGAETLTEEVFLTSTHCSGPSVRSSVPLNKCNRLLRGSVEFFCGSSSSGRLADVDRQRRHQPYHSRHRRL
- assay protocol: Inhibition of Trypanosoma cruzi recombinant cruzain by fluorescence technique
// reported IC50 for each item listed
observation type: IC50 (nM)

{"columns": ["mol smiles", "unit annotation", "lt gt eq", "reported measurement"],
 "data": [
  ["CC(C)C[C@@H]1N[C@@H](C(=O)Nc2ccccc2)CCCC[C@@H](/C=C/S(=O)(=O)c2ccccc2)NC1=O", "nM", ">", 10000],
  ["CC(C)C[C@@H]1N[C@@H](C(=O)Nc2ccccc2)CCCCC[C@@H](/C=C/S(=O)(=O)c2ccccc2)NC1=O", "nM", "=", 2000]
]}
